Field: remaining at 24 h, 10 μM. Provide a value for each of the molecules that follow.
# protocol.details: Serum stability assay in human serum (LC/MS)
# study.conditions: human, Remaining peptide (%), 37 °C, incubation time 24 h, relative to 0 h = 100%, technical replicates
Numbered stars: 1 amine (or outer) side, 2 acyl side, 3 side chain; on linkers, the order of the positions; unused ones are H or OH. Bridge positions count the residues as written; N and C are the ends. Square brackets hold non-standard residues; d marks the D form. Peptide text beside a SMILES is read from it. Acbc(cis-1,3) = O=C([C@H]1C[C@@H](N[*:1])C1)[*:2]; X1 = O=C([C@@H]1CC[C@H](N[*:1])C1)[*:2]
Numbers only, in %.

1) CC(C)C[C@@H]1NC(=O)[C@H](CC(N)=O)NC(=O)[C@H](CC(C)C)NC(=O)[C@H]2C[C@H](C2)NC(=O)[C@H](Cc2c[nH]cn2)NC(=O)[C@H](Cc2ccccc2)NC(=O)[C@@H](Cc2ccc(O)cc2)NC(=O)CSC[C@H](C(N)=O)NC(=O)CNC(=O)[C@@H]2CCCN2C(=O)[C@H](CCCNC(=N)N)NC(=O)[C@H](Cc2ccc(O)cc2)NC(=O)CNC1=O [GM4] ({CH2CO}-[dY]FH[Acbc(cis-1,3)]LNLGYRPG[dC]-NH2; thioether N-13)    82.2
2) CC(C)C[C@@H]1NC(=O)[C@H](C)NC(=O)[C@H](Cc2c[nH]cn2)NC(=O)[C@H](Cc2ccccc2)NC(=O)[C@@H](Cc2ccc(O)cc2)NC(=O)CSC[C@H](C(N)=O)NC(=O)CNC(=O)[C@@H]2CCCN2C(=O)[C@H](CCCNC(=N)N)NC(=O)[C@H](Cc2ccc(O)cc2)NC(=O)CNC(=O)[C@H](CC(C)C)NC(=O)[C@H](CC(N)=O)NC1=O [GM4γ^14A] ({CH2CO}-[dY]FHALNLGYRPG[dC]-NH2; thioether N-13)    32.3

Batch request: remaining at 24 h, 10 μM for each of the following molecules.
1. CC[C@H](C)[C@@H]1NC(=O)[C@H](CO)NC(=O)[C@H](Cc2ccccc2)NC(=O)[C@H]2C[C@H](C2)NC(=O)[C@H](Cc2c[nH]cn2)NC(=O)[C@H](Cc2ccccc2)NC(=O)[C@@H](Cc2ccc(O)cc2)NC(=O)CSC[C@H](C(N)=O)NC(=O)[C@H](CC(C)C)NC(=O)[C@H](CCCNC(=N)N)NC(=O)[C@H](Cc2ccc(O)cc2)NC(=O)[C@H](CCCNC(=N)N)NC(=O)[C@H](Cc2ccccc2)NC1=O [GM2] ({CH2CO}-[dY]FH[Acbc(cis-1,3)]FSIFRYRL[dC]-NH2; thioether N-13)
2. CC(C)C[C@@H]1NC(=O)[C@H]([C@@H](C)O)NC(=O)[C@H](Cc2ccc(O)cc2)NC(=O)[C@H]([C@@H](C)O)NC(=O)[C@H](Cc2c[nH]cn2)NC(=O)[C@@H]2CCCN2C(=O)[C@@H]2CCCN2C(=O)[C@H](Cc2ccccc2)NC(=O)[C@H](C)NC(=O)[C@H](Cc2c[nH]cn2)NC(=O)[C@H](Cc2ccccc2)NC(=O)[C@@H](Cc2ccc(O)cc2)NC(=O)CSC[C@H](C(N)=O)NC1=O [GM1γ^14A] ({CH2CO}-[dY]FHAFPPHTYTL[dC]-NH2; thioether N-13)
3. CC[C@H](C)[C@@H]1NC(=O)[C@H](Cc2ccc(O)cc2)NC(=O)[C@H](CC(C)C)NC(=O)[C@H](CC(=O)O)NC(=O)[C@H](CCCNC(=N)N)NC(=O)[C@H](Cc2ccccc2)NC(=O)[C@@H]2CC[C@@H](C2)NC(=O)[C@H](Cc2c[nH]cn2)NC(=O)[C@H](Cc2ccccc2)NC(=O)[C@@H](Cc2ccc(O)cc2)NC(=O)CSC[C@H](C(N)=O)NC(=O)CNC(=O)[C@H](CC(C)C)NC1=O [GM5] ({CH2CO}-[dY]FH[X1]FRDLYILG[dC]-NH2; thioether N-13)

Key:
[1.85, 26.4, 58.4]

Source of measurements: paper PMC10322702
